Test system: PCP recognition sites
experiment.description: [3H]TCP radioreceptor assay (external screen), binding to PCP recognition sites in whole rat forebrain membranes
setup.conditions: 25° C., 60 min
readout: [3H]TCP (external screen) Percent Inhibition (%) @10 μM
Give the quantity in %, number only.

[in] Using the record for CC(C)(C)c1ccc(O)c2c1C1c3ccccc3C2[n+]2ccccc21 (stereo not shown) [15(c)] , state its measured [3H]TCP (external screen) Percent Inhibition (%) @10 μM.
[out] 24

---
[in] Using the record for O=[N+]([O-])c1cccc2c1C1c3ccccc3C2c2cccc[n+]21 (stereo not shown) [15(b)] , state its measured [3H]TCP (external screen) Percent Inhibition (%) @10 μM.
[out] 9

[in] Using the record for Cc1cccc2c1C1c3ccccc3C2c2cccc[n+]21 (stereo not shown) [15(d)] , state its measured [3H]TCP (external screen) Percent Inhibition (%) @10 μM.
[out] 11

[in] Using the record for C1=CC2C3c4ccccc4C(C2C1)[n+]1ccccc13 (stereo not shown) [15(a)] , state its measured [3H]TCP (external screen) Percent Inhibition (%) @10 μM.
[out] 92

* * *

test.system: PCP recognition sites
experiment.description: [3H]TCP radioreceptor assay (internal screen), binding to PCP recognition sites in rat whole brain membranes
Design: species or system rat (male Sprague-Dawley)
setup.conditions: approx. 1 nM [3H]TCP, 25 min, room temperature, mean of at least two separate determinations
Protocol: [^3 H]TCP binding to PCP recognition sites was performed as described by Vignon et al. Brain Research 1983, 280, 194-197. Male Sprague-Dawley rats were sacrificed by decapitation, and whole brains were homogenized in 10 volumes (wt/vol) of cold Tris-HCl buffer (50 mM, pH 7.7) using a Brinkmann Polytron (setting 6, 30 sec). The homogenate was centrifuged at 40,000×g for 10 min at 4° C. […]
We label by threshold. Values of Ki strictly beneath 400 nM are Yes. Values of 400 nM and up are No.

[in] Dear colleague, could you confirm whether Ki of CC(C)=C1C=CC2C3c4ccccc4C(C12)[n+]1ccccc13 (stereo not shown) falls below 400 nM? Thanks.
[out] Yes

[in] Dear colleague, could you confirm whether Ki of Fc1ccc2c(c1)C1c3cccc[n+]3C2C2CC=CC12 (stereo not shown) falls below 400 nM? Thanks.
[out] No

---
[in] Dear colleague, could you confirm whether Ki of CC12c3ccccc3C(c3cccc[n+]31)C1C=CCC12 (stereo not shown) falls below 400 nM? Thanks.
[out] Yes

* * *

test.system: PCP recognition sites
experiment.description: [3H]TCP radioreceptor assay (internal screen), binding to PCP recognition sites in rat whole brain membranes
Set-up: species or system rat (male Sprague-Dawley)
setup.conditions: approx. 1 nM [3H]TCP, 25 min, room temperature, mean of at least two separate determinations
readout: Ki (nM)
Give the quantity in nM, number only.

[in] // fetch Ki for c1ccc2c(c1)C1c3cccc[n+]3C2C2CCOC12 (stereo not shown) [Example 8] ; system: PCP recognition sites
[out] 8490

[in] // fetch Ki for C1=CC2C3c4ccccc4C(C2CC1)[n+]1ccccc13 (stereo not shown) [Example 1] ; system: PCP recognition sites
[out] 245

[in] // fetch Ki for Brc1ccc2c(c1)C1c3cccc[n+]3C2C2CC=CC12 (stereo not shown) [4(c)] ; system: PCP recognition sites
[out] 1630

Next molecule, Ki to be filled in.
[in] // fetch Ki for C1=CC2C3c4ccccc4C(C2C1)[n+]1ccccc13 (stereo not shown) [15(a)] ; system: PCP recognition sites
[out] 464
